# settings: 390 K; Liquid; Gas chromatography
Rule: yes for vapor or sublimation pressure not less than 0.05 kPa, no for anything less.

# compound, label_value
data = [
    ("CCCC/C=C\\CCCCCCCCCCCCOC(C)=O [(Z)-octadec-13-en-1-yl acetate]", "no"),
    ("CC/C=C/C=C/CCCCCCCCOC(C)=O [(9E,11E)-tetradeca-9,11-dienyl acetate]", "yes"),
    ("C#CCOC(=O)/C=C(C)/C=C/CC(C)CCCC(C)C (configuration not stated) [prop-2-ynyl (2E,4E)-3,7,11-trimethyldodeca-2,4-dienoate]", "no"),
    ("CCCCCCCC/C=C\\CCCOC(C)=O [(Z)-tridec-4-enyl acetate]", "yes"),
    ("CCC/C=C\\CCCCCCCOC(C)=O [(Z)-dodec-8-enyl acetate]", "yes"),
]

## Task Please indicate if the recorded vapor or sublimation pressure for CC/C=C/CCCCCCCCCCOC(C)=O [(E)-tetradec-11-enyl acetate] meets or exceeds 0.05 kPa.
## Result yes

## Task Is vapor or sublimation pressure for CCOC(=O)/C=C(C)/C=C/C[C@@H](C)CCCC(C)C [ethyl (S,2E,4E)-3,7,11-trimethyldodeca-2,4-dienoate] at or above 0.05 kPa?
## Result yes
